Provide the reported Fold change (KD, to pVH/pVL) of each item.
target: T1, full length recombinant human 2N4R tau (human, UniProt P10636 1-758); assay: SPR SCK, IgG on Protein A, tau in flow
T1 construct: bought from rPeptide; pHrodo Red maleimide-labelled where it stands in uptake assays; also called tau1-441; full length tau
T1 sequence (P10636 other isoform, or with tags, fused parts or gaps limits assumed): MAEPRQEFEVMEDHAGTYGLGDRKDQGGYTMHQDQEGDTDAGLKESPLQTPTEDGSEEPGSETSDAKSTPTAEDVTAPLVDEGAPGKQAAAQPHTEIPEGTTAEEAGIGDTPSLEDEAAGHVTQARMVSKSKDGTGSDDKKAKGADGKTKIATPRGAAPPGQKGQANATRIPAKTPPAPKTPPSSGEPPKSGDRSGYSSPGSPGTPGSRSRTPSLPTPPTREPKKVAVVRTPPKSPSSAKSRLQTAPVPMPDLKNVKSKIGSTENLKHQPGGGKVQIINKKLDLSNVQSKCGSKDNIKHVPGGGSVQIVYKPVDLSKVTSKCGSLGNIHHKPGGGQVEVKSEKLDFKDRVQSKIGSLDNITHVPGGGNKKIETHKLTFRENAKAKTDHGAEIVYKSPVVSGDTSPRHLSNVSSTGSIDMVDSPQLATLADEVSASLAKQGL
One number for each entry.

# BINDER, Fold change (KD, to pVH/pVL)
records = [
    ("#44_VH4VK4_H14/pVL (antibody, V domains shown, also called Clone VH4_H14; #44_VH4_H14) VH: QVQLQESGPGLVKPSETLSLTCTVSGIDLSSYAMAWVRQAPGKGLEWIGAIDSAGSTFYASWVKGRSTISKDTSKTTVDLQMTSLTAEDTATYFCARDSGAFDPWGQGTLVTVSS VL: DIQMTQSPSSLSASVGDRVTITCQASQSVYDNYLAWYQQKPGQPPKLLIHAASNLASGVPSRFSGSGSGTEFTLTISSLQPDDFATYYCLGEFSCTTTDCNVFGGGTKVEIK", 1.03),
    ("#44_VH4VK4_H10/pVL (antibody, V domains shown, also called Clone VH4_H10; #44_VH4_H10) VH: QVQLQESGPGLVKPSETLSLTCTVSGIDLSSYAMAWVRQAPGKGLEWIGAIDARGRTFYASWVKGRFTISKDTSKTTVDLQMTSLTAEDTATYFCARDSGAFDPWGQGTLVTVSS VL: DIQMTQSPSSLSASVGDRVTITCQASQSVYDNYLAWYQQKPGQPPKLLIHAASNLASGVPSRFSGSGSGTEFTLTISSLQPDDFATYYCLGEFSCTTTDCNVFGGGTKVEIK", 0.66),
]

Could you now consider this next binder?
Exercise: Entry #44_VH4VK4_H02/pVL (antibody, V domains shown, also called Clone VH4_H02; #44_VH4_H02) VH: QVQLQESGPGLVKPSETLSLTCTVSGIDLSSYAMAWVRQAPGKGLEWIGCIDRRGGTFYASWVKGRFTISKDTSKTTVDLQMTSLTAEDTATYFCARDRGDFDVWGQGTLVTVSS VL: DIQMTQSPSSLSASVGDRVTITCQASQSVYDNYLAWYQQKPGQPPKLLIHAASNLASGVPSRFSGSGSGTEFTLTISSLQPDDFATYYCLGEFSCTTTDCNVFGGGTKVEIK needs its Fold change (KD, to pVH/pVL) filled in; supply it.
Key: 5.62
